Where do these numbers come from? They come from patent EP0837071A1.

- Test system: plasma
- Method Summary: Plasma coagulation assay: activated partial thromboplastin time (APTT)
- Assay type: biochemical
- Assay Context: Actin (Dade), CaCl2
Square brackets hold non-standard residues; d marks the D form. Peptide text beside a SMILES is read from it. * marks the point of attachment. dHpg = N[C@@H](C(=O)O)c1ccc(O)cc1; Boc = CC(C)(C)OC(=O)*
Below, each entry is listed with its recorded APTT: concentration of test compounds required to prolong coagulation by 2-fold.
Report as a plain number; the unit ng/mL is understood.

Look over these answered cases.
Response field APTT: concentration of test compounds required to prolong coagulation by 2-fold (plasma) for item CC(C)(C)OC(=O)N[C@@H](C(=O)N1CCC[C@H]1C(=O)N[C@H](C=O)CCCNC(=N)N)c1ccc(O)cc1 [N-Boc-D-(4-hydroxy)phenylglycyl] (Boc-[dHpg]-Pro-Arg-aldehyde) : 1091

Response field APTT: concentration of test compounds required to prolong coagulation by 2-fold (plasma) for item CC(C)(C)OC(=O)NC(C(=O)N1CCC[C@H]1C(=O)N[C@H](C=O)CCCNC(=N)N)c1cccc2ccccc12 (mixture of isomers) : 2272

Response field APTT: concentration of test compounds required to prolong coagulation by 2-fold (plasma) for item CC(C)(C)OC(=O)N[C@@H](C(=O)N1CCC[C@H]1C(=O)N[C@H](C=O)CCCNC(=N)N)c1ccc2ccccc2c1 : 1200

Okay, now this molecule:
Response field APTT: concentration of test compounds required to prolong coagulation by 2-fold (plasma) for item COc1ccc2cc([C@@H](NC(=O)OC(C)(C)C)C(=O)N3CCC[C@H]3C(=O)N[C@H](C=O)CCCNC(=N)N)ccc2c1 : 2239

---

- Study Target: thrombin (Bos taurus)
- Construct: purchased
- Method Summary: Inhibition of thrombin amidase activity (chromogenic substrate N-benzoyl-D-phenylalanyl-L-valyl-L-arginyl-p-nitroanilide)
- Format: biochemical
Below, each entry is listed with its recorded Kd.
Report as a plain number; the unit nM is understood.

For record CC(C)(C)OC(=O)N[C@@H](C(=O)N1CCC[C@H]1C(=O)N[C@H](C=O)CCCNC(=N)N)c1ccc2ccccc2c1 the listed Kd is 45

More entries:
For record CC(C)(C)OC(=O)N[C@@H](C(=O)N1CCC[C@H]1C(=O)N[C@H](C=O)CCCNC(=N)N)c1cccc2ccccc12 the listed Kd is 19.2

---

- Tested on: plasma
- Method Summary: Plasma coagulation assay: activated partial thromboplastin time (APTT)
- Type: biochemical
- Assay Context: Actin (Dade), CaCl2
Square brackets hold non-standard residues; d marks the D form. Peptide text beside a SMILES is read from it. dPhg = N[C@@H](C(=O)O)c1ccccc1
Below, each entry is listed with its recorded APTT: concentration of test compounds required to prolong coagulation by 2-fold.
Report as a plain number; the unit ng/mL is understood.

For record N=C(N)NCCC[C@@H](C=O)NC(=O)[C@@H]1CCCN1C(=O)[C@H](N)c1ccccc1 [D-Phenylglycyl, D-Phg-L-Pro-L-Arg-H] (H-[dPhg]-Pro-Arg-aldehyde) the listed APTT: concentration of test compounds required to prolong coagulation by 2-fold is 1139

For record COc1ccc([C@@H](NC(C)=O)C(=O)N2CCC[C@H]2C(=O)N[C@H](C=O)CCCNC(=N)N)cc1 [N-Acetyl-D-(4-methoxy)phenylglycyl] the listed APTT: concentration of test compounds required to prolong coagulation by 2-fold is 2600

Okay, now this compound:
For record CC(C)(C)OC(=O)N[C@@H](C(=O)N1CCC[C@H]1C(=O)N[C@H](C=O)CCCNC(=N)N)c1cccc2ccccc12 [N-Boc-D-1-naphthylglycyl] the listed APTT: concentration of test compounds required to prolong coagulation by 2-fold is 3100
